tested_on: FXR (Homo sapiens)
Construct: 5 μL of 20 nM FXR-LBD Complete Coregulator buffer G; purchased ThermoFisher PV4833
Sequence (Q96RI1 262-486 limits assumed): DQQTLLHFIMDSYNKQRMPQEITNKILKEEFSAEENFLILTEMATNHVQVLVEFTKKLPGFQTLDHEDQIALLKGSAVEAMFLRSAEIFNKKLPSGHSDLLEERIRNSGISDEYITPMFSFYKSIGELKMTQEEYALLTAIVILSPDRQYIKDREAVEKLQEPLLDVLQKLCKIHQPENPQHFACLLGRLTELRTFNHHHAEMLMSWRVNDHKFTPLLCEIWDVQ
assay_name: FXR antagonist screening by TR-FRET (LanthaScreen TR-FRET FXR co-activation assay kit)
Format: biochemical
particulars: Table 1.2, FXR antagonistic activity; TR-FRET with CDCA; geometric means of at least two independent runs
The reader will find reported IC50 values listed item by item below.

Param item: CCOC(=O)c1oc2ccc(S(=O)(=O)N(CCc3ccccc3)c3ccccc3N3CCN(C(=O)c4ccc(C(F)(F)F)cc4)CC3)cc2c1C ; param system: FXR (Homo sapiens); output IC50: 50 to 100 µM

The observed IC50 for CCOC(=O)c1oc2ccc(S(=O)(=O)N(CCc3ccccc3)c3ccccc3N3CCN(C(=O)c4cc(Br)cs4)CC3)cc2c1C when tested with FXR (Homo sapiens) stands at 50 to 100 µM

Fill in: FXR (Homo sapiens) IC50 for Cc1c(C(=O)O)oc2ccc(S(=O)(=O)N(CCc3ccccc3)c3ccccc3N3CCN(C(=O)c4ccc(C#Cc5ccccc5)cc4)CC3)cc12 = 0.1 to 10 µM

Entry CCOC(=O)c1sc2ccc(S(=O)(=O)N(CCCc3ccccc3)c3ccccc3N3CCN(C(=O)c4sccc4Br)CC3)cc2c1C ; assay system FXR (Homo sapiens); IC50 recorded at 50 to 100 µM

Field IC50 (system: FXR (Homo sapiens)) for entry CC(=O)Nc1ccc(C(=O)N2CCN(c3ccccc3N(CCc3ccccc3)S(=O)(=O)c3ccc4oc(C(=O)O)c(C)c4c3)CC2)cc1 = 0.1 to 10 µM
